Give ABSOLUTE MONOCYTE for every item shown.
species on record: Rattus norvegicus; assay: DrugMatrix - Regimen: Daily Repeat; assay type: toxicity, organism-based, Sprague-Dawley; design: regimen Daily Repeat, gender Male, age 6-8 weeks; settings: in vivo, po, 0 mg/kg, 72 h, tissue Blood, route oral GAVAGE, dose level Control, time 3 day, vehicle .5 % CMC
Report the figure in CELLS/uL without appending any unit label.

Look up ABSOLUTE MONOCYTE: C=C1CC[C@H](O)C/C1=C/C=C1\CCC[C@]2(C)[C@@H]([C@H](C)/C=C/[C@H](C)C(C)C)CC[C@@H]12
0

Look up ABSOLUTE MONOCYTE: CC(/C=C1\SC(=S)N(CC(=O)O)C1=O)=C\c1ccccc1
183.17

Look up ABSOLUTE MONOCYTE: Brc1ccccc1
193.33

Look up ABSOLUTE MONOCYTE: Cc1c(-c2ccccc2)oc2c(C(=O)OCCN3CCCCC3)cccc2c1=O [FLAVOXATE]
474

Look up ABSOLUTE MONOCYTE: O=c1[nH]cc(F)c(=O)[nH]1
41

Look up ABSOLUTE MONOCYTE: COC(=O)c1ccc(O)cc1
85.33

Look up ABSOLUTE MONOCYTE: CC(C)[C@H](N)C(=O)OCCOCn1cnc2c(=O)[nH]c(N)nc21
180.83

Look up ABSOLUTE MONOCYTE: CCC[C@@H]1C[C@@H](C(=O)N[C@@H]([C@H]2O[C@H](SC)[C@H](O)[C@@H](O)[C@H]2O)[C@@H](C)O)N(C)C1
160.33

Look up ABSOLUTE MONOCYTE: CCc1ccc(C(=O)C(C)CN2CCCCC2)cc1 (stereo not drawn)
420.83

Look up ABSOLUTE MONOCYTE: COc1c(C)c2c(c(O)c1C/C=C(\C)CCC(=O)OCCN1CCOCC1)C(=O)OC2 [MYCOPHENOLATE MOFETIL]
183.17

Look up ABSOLUTE MONOCYTE: CN1CCC[C@@H]1CCO[C@](C)(c1ccccc1)c1ccc(Cl)cc1
183.17

Look up ABSOLUTE MONOCYTE: CCOC(=O)OC(C)OC1=C(C(=O)Nc2ccccn2)N(C)S(=O)(=O)c2ccccc21 (stereo not drawn)
193.33

Look up ABSOLUTE MONOCYTE: CC1(C)[C@H]2CC[C@]1(C)C(=O)C2 [(-)-CAMPHOR]
0

----------
species: Rattus norvegicus; test: DrugMatrix - Regimen: Daily Repeat; format: toxicity, organism-based, Sprague-Dawley; set-up: regimen Daily Repeat, gender Male, age 6-8 weeks; conditions: in vivo, ip, 5 mg/kg, […], tissue Blood, route intraperitoneal, dose level High, time 28 day, vehicle 100 % SALINE
MEASURE: ABSOLUTE LYMPHOCYTE

Look up ABSOLUTE LYMPHOCYTE: CARBOPLATIN
9490 cells/µL

----------
organism: Rattus norvegicus; experiment: DrugMatrix - Regimen: Daily Repeat; type: toxicity, organism-based, Sprague-Dawley; set-up: regimen Daily Repeat, gender Male, age 6-8 weeks; conditions: in vivo, po, 1500 mg/kg, 72 h, tissue Blood, route oral GAVAGE, dose level High, time 3 day, vehicle .5 % CMC
MEASURE: MEAN CORPUSCULAR HEMOGLOBIN (pg)
Report the figure in pg without appending any unit label.

Look up MEAN CORPUSCULAR HEMOGLOBIN: CCOC(=O)[C@H](CCc1ccccc1)N[C@@H](C)C(=O)N1[C@H](C(=O)O)C[C@@H]2CCC[C@@H]21
26.9

Look up MEAN CORPUSCULAR HEMOGLOBIN: COC(=O)c1ccc(O)cc1
25.03

Look up MEAN CORPUSCULAR HEMOGLOBIN: O=C1CCc2cc(OCCCCc3nnnn3C3CCCCC3)ccc2N1
20.43

Look up MEAN CORPUSCULAR HEMOGLOBIN: NS(=O)(=O)c1cc2c(cc1Cl)NCNS2(=O)=O [HYDROCHLOROTHIAZIDE]
23.43

----------
species on record: Rattus norvegicus; assay: DrugMatrix - Regimen: Daily Repeat; assay type: toxicity, organism-based, Sprague-Dawley; design: regimen Daily Repeat, gender Male, age 6-8 weeks; conditions: in vivo, po, 2000 mg/kg, 72 h, tissue Blood, route oral GAVAGE, dose level High, time 3 day, vehicle .5 % CMC
Give ERYTHROCYTE COUNT for every item shown.
Give your result as the value with the unit written after it.

Look up ERYTHROCYTE COUNT: CC(C)[C@H](N)C(=O)OCCOCn1cnc2c(=O)[nH]c(N)nc21
4.99 x10E6/uL

Look up ERYTHROCYTE COUNT: CC(=O)O[C@]1(C(C)=O)CC[C@H]2[C@@H]3C=C(Cl)C4=CC(=O)CC[C@]4(C)[C@H]3CC[C@@]21C [CHLORMADINONE ACETATE]
5.63 x10E6/uL

Look up ERYTHROCYTE COUNT: NCC(=O)O
6.16 x10E6/uL

Look up ERYTHROCYTE COUNT: NCCCC[C@H](N[C@@H](CCc1ccccc1)C(=O)O)C(=O)N1CCC[C@H]1C(=O)O [LISINOPRIL ANHYDROUS]
5.63 x10E6/uL

----------
species: Rattus norvegicus; assay: DrugMatrix - Regimen: Daily Repeat; assay type: toxicity, organism-based, Sprague-Dawley; parameters: regimen Daily Repeat, gender Male, age 6-8 weeks; conditions: in vivo, po, 0 mg/kg, 2184 h, tissue Blood, route oral GAVAGE, dose level Control, time 91 day, vehicle .5 % CMC
MEASURE: ABSOLUTE BASOPHIL (cells/µL)
Report the figure in cells/µL without appending any unit label.

Look up ABSOLUTE BASOPHIL: O=c1cc(-c2ccccc2)oc2c1ccc1ccccc12 [ALPHA-NAPHTHOFLAVONE]
130

----------
organism: Rattus norvegicus; assay: DrugMatrix - Regimen: Daily Repeat; type: toxicity, organism-based, Sprague-Dawley; design: regimen Daily Repeat, gender Male, age 6-8 weeks; details: in vivo, po, 0 mg/kg, 72 h, tissue Blood, route oral GAVAGE, dose level Control, time 3 day, […]
Give MEAN CORPUSCULAR HEMOGLOBIN for every item shown.
Give your result as the value with the unit written after it.

Look up MEAN CORPUSCULAR HEMOGLOBIN: CCCCCCCCCc1ccc(O)cc1
23.93 pg

Look up MEAN CORPUSCULAR HEMOGLOBIN: CCCC[C@@H](CC)COC(=O)c1ccccc1C(=O)OC[C@@H](CC)CCCC [BIS(2-ETHYLHEXYL)PHTHALATE]
24.37 pg

Look up MEAN CORPUSCULAR HEMOGLOBIN: CN(C)CCCC1(c2ccc(F)cc2)OCc2cc(C#N)ccc21 (stereo unspecified)
23.98 pg

Look up MEAN CORPUSCULAR HEMOGLOBIN: COc1ccc2c(c1)c(CC(=O)OCC(=O)O)c(C)n2C(=O)c1ccc(Cl)cc1
23.58 pg

Look up MEAN CORPUSCULAR HEMOGLOBIN: CC1=C(/C=C/C(C)=C/C=C/C(C)=C\C(=O)O)C(C)(C)CCC1
24.07 pg

Look up MEAN CORPUSCULAR HEMOGLOBIN: CSc1ccc2c(c1)N(CCC1CCCCN1C)c1ccccc1S2 (stereo unspecified)
23.38 pg

----------
species on record: Rattus norvegicus; test: DrugMatrix - Regimen: Daily Repeat; format: toxicity, organism-based, Sprague-Dawley; parameters: regimen Daily Repeat, gender Male, age 6-8 weeks; details: in vivo, po, 10 mg/kg, 120 h, tissue Blood, route oral GAVAGE, dose level Low, time 5 day, vehicle .5 % CMC
MEASURE: MONOCYTE (%)
Report the figure in % without appending any unit label.

Look up MONOCYTE: COc1c(C)c2c(c(O)c1C/C=C(\C)CCC(=O)OCCN1CCOCC1)C(=O)OC2 [MYCOPHENOLATE MOFETIL]
0.67

Look up MONOCYTE: CC(=O)O[C@]1(C(C)=O)CC[C@H]2[C@@H]3C=C(Cl)C4=CC(=O)CC[C@]4(C)[C@H]3CC[C@@]21C [CHLORMADINONE ACETATE]
0.33

Look up MONOCYTE: NS(=O)(=O)c1cc2c(cc1Cl)NCNS2(=O)=O [HYDROCHLOROTHIAZIDE]
0.33

Look up MONOCYTE: O=C1CN=C(c2ccccc2)c2cc([N+](=O)[O-])ccc2N1 [NITRAZEPAM]
0

----------
species: Rattus norvegicus; assay: DrugMatrix - Regimen: Daily Repeat; format: toxicity, organism-based, Sprague-Dawley; design: regimen Daily Repeat, gender Male, age 6-8 weeks; settings: in vivo, po, 10 mg/kg, 72 h, tissue Plasma, route oral GAVAGE, dose level Low, time 3 day, vehicle .5 % CMC
Give PHOSPHORUS for every item shown.
Report the figure in mg/dL without appending any unit label.

Look up PHOSPHORUS: COc1c(C)c2c(c(O)c1C/C=C(\C)CCC(=O)OCCN1CCOCC1)C(=O)OC2 [MYCOPHENOLATE MOFETIL]
13.07

Look up PHOSPHORUS: NS(=O)(=O)c1cc2c(cc1Cl)NCNS2(=O)=O [HYDROCHLOROTHIAZIDE]
12.73

Look up PHOSPHORUS: CC(=O)O[C@]1(C(C)=O)CC[C@H]2[C@@H]3C=C(Cl)C4=CC(=O)CC[C@]4(C)[C@H]3CC[C@@]21C [CHLORMADINONE ACETATE]
11.17

Look up PHOSPHORUS: O=C1CN=C(c2ccccc2)c2cc([N+](=O)[O-])ccc2N1
10.73
